target: MRGPRX4 (Homo sapiens); assay: MRGPRX4 activation, Fluo-8 Ca2+ FLIPR assay in HEK293T cells stably expressing MRGPRX4; assay type: cell-based; details: Conc. (Log[M]) −4
Sequence (Q96LA9 whole entry): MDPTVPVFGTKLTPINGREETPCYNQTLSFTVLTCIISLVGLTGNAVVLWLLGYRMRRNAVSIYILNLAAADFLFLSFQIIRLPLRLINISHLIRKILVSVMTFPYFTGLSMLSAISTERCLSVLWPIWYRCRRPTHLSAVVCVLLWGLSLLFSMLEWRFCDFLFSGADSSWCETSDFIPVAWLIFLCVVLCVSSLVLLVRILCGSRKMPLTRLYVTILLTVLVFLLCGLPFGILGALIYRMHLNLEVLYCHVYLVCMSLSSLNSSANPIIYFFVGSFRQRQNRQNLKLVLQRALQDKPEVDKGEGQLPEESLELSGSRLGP
Label 0.0 if MRGPRX4 activation, fluorescence change (dF/F0), Average falls below 0.1; label 1.0 in every other case.

* CC[C@H]1[C@@H](O)[C@@H]2[C@H](CC[C@]3(C)[C@@H]([C@H](C)CCC(=O)NS(=O)(=O)CC)CC[C@@H]23)[C@@]2(C)CCCC[C@@H]12 | 1.0
* COC(=O)CC[C@@H](C)[C@H]1CC[C@H]2[C@@H]3/C(=N\OC(C)(C)C(=O)O)C[C@@H]4C[C@H](OC(C)=O)CC[C@]4(C)[C@H]3CC[C@]12C | 1.0

Tell me whether MRGPRX4 activation, fluorescence change (dF/F0), Average is at least 0.1 here: `C[C@H](CC/C=C/C(=O)O)[C@H]1CC[C@H]2[C@@H]3CC[C@@H]4C[C@H](O)CC[C@]4(C)[C@H]3CC[C@]12C`
0.0

Tell me whether MRGPRX4 activation, fluorescence change (dF/F0), Average is at least 0.1 here: `CC[C@H]1[C@@H](O)[C@@H]2[C@H](CC[C@]3(C)[C@@H]([C@H](C)CCNC(=O)NS(=O)(=O)c4ccc5c(c4)OCO5)CC[C@@H]23)[C@@]2(C)CCCC[C@@H]12`
0.0

Tell me whether MRGPRX4 activation, fluorescence change (dF/F0), Average is at least 0.1 here: `CC[C@H]1[C@@H](OC(=O)c2cccc(I)c2)[C@@H]2[C@H](CC[C@]3(C)C([C@H](C)CCC(=O)OC)=CC[C@@H]23)[C@@]2(C)CCCC[C@@H]12`
0.0

Tell me whether MRGPRX4 activation, fluorescence change (dF/F0), Average is at least 0.1 here: `C[C@]12CC[C@@H](O)C[C@H]1CC[C@@H]1[C@@H]2C[C@H](O)[C@]2(C)[C@@H](CCCCCC(=O)O)CC[C@@H]12`
1.0

Tell me whether MRGPRX4 activation, fluorescence change (dF/F0), Average is at least 0.1 here: `CC[C@H]1[C@@H](O)[C@@H]2[C@H](CC[C@]3(C)[C@@H]([C@H](C)CC(=O)O)CC[C@@H]23)[C@@]2(C)CCCC[C@@H]12`
0.0

Tell me whether MRGPRX4 activation, fluorescence change (dF/F0), Average is at least 0.1 here: `CC[C@H]1[C@@H](O)[C@@H]2[C@H](CC[C@]3(C)[C@@H]([C@H](C)CCNC(=O)NS(=O)(=O)N4CCCC4)CC[C@@H]23)[C@@]2(C)CCCC[C@@H]12`
0.0

Tell me whether MRGPRX4 activation, fluorescence change (dF/F0), Average is at least 0.1 here: `CC[C@H]1[C@@H](O)[C@@H]2[C@H](CC[C@]3(C)[C@@H]([C@H](C)CCNC(=O)NS(=O)(=O)c4ccc(C)cc4)CC[C@@H]23)[C@@]2(C)CCCC[C@@H]12`
0.0

Tell me whether MRGPRX4 activation, fluorescence change (dF/F0), Average is at least 0.1 here: `CC[C@H]1[C@@H](OC(=O)c2cccc(I)c2)[C@@H]2[C@H](CC[C@@]3(C)[C@H]2CC[C@]3(Cl)[C@H](C)CCC(=O)OC)[C@@]2(C)CCCC[C@@H]12`
0.0

Tell me whether MRGPRX4 activation, fluorescence change (dF/F0), Average is at least 0.1 here: `C[C@H](CCCO)[C@H]1CC[C@H]2[C@@H]3CC[C@@H]4CCCC[C@]4(C)[C@H]3CC[C@]12C`
0.0

Tell me whether MRGPRX4 activation, fluorescence change (dF/F0), Average is at least 0.1 here: C[C@H](CCC(=O)O)[C@H]1CC[C@H]2[C@@H]3[C@H](O)C[C@@H]4C[C@H](O)CC[C@]4(C)[C@H]3CC[C@]12C [CDCA, chenodeoxycholic acid, reference compound]
1.0

Tell me whether MRGPRX4 activation, fluorescence change (dF/F0), Average is at least 0.1 here: `C[C@H](CCC(=O)O)[C@H]1CC[C@H]2[C@@H]3CC[C@@H]4C[C@@H](O)CC[C@]4(C)[C@H]3C[C@H](O)[C@]12C`
1.0

Tell me whether MRGPRX4 activation, fluorescence change (dF/F0), Average is at least 0.1 here: `CC[C@H]1[C@@H](O)[C@@H]2[C@H](CC[C@]3(C)[C@@H]([C@H](C)CCNC(=O)NS(=O)(=O)c4cccc(Cl)c4)CC[C@@H]23)[C@@]2(C)CCCC[C@@H]12`
0.0

Tell me whether MRGPRX4 activation, fluorescence change (dF/F0), Average is at least 0.1 here: `CC[C@H]1[C@@H](O)[C@@H]2[C@H](CC[C@]3(C)[C@@H]([C@H](C)CCC(=O)NS(=O)(=O)C(C)(C)C)CC[C@@H]23)[C@@]2(C)CCCC[C@@H]12`
0.0
